# System: L929
# experimentNotes: Growth inhibition of mouse L929 cells after 5 days by MTT assay
# Type: cell-based
# protocolConditions: L929, 120 h
quantityKind: pIC50
Keep it numeric: pIC50 is minus log10 of the concentration in mol/L.

Entry COc1ccc(-c2ncn(C)c2-c2cc(F)c(OC)c(OC)c2)cc1F , tested on L929, has a reported pIC50 of 5.00

Entry COc1ccc(-c2ncn(C)c2-c2cc(Cl)c(OC)c(OC)c2)cc1F , tested on L929, has a reported pIC50 of 6.66

Entry COc1ccc(-c2ncn(C)c2-c2cc(F)c(OC)c(F)c2)cc1F , tested on L929, has a reported pIC50 of 4.51

Entry COc1ccc(-c2ncn(C)c2-c2cc(I)c(OC)c(OC)c2)cc1F , tested on L929, has a reported pIC50 of 7.40

Entry COc1ccc(-c2ncn(C)c2-c2cc(Cl)c(OC)c(Cl)c2)cc1F , tested on L929, has a reported pIC50 of 5.62

Entry COc1ccc(-c2c(-c3cc(OC)c(OC)c(OC)c3)ncn2C)cc1N , tested on L929, has a reported pIC50 of 6.66

Entry COc1ccc(-c2ncn(C)c2-c2cc(I)c(OC)c(I)c2)cc1F , tested on L929, has a reported pIC50 of 7.74

Entry COc1ccc(-c2c(-c3cc(Cl)c(OC)c(OC)c3)ncn2C)cc1N , tested on L929, has a reported pIC50 of 6.87

Entry COc1ccc(-c2ncn(C)c2-c2cc(Br)c(OC)c(Br)c2)cc1F , tested on L929, has a reported pIC50 of 5.36

Entry COc1ccc(-c2ncn(C)c2-c2cc(Br)c(OC)c(OC)c2)cc1F , tested on L929, has a reported pIC50 of 7.60

###

# Tested on: PC-3
# experimentNotes: Growth inhibition of human PC3 cells after 5 days by MTT assay
# Type: functional, cell-based
# protocolConditions: PC-3, 120 h
pIC50: −log10 of the molar value.
Entry flag: MET if pIC50 reaches 7; NOT MET if it does not.

Inquiry: Is pIC50 at least 7? Consider COc1ccc(-c2ncn(C)c2-c2cc(Br)c(OC)c(Br)c2)cc1F
Reply text: MET

Inquiry: Is pIC50 at least 7? Consider COc1ccc(-c2ncn(C)c2-c2cc(F)c(OC)c(OC)c2)cc1F
Reply text: NOT MET

Inquiry: Is pIC50 at least 7? Consider COc1ccc(-c2ncn(C)c2-c2cc(F)c(OC)c(F)c2)cc1F
Reply text: NOT MET

Inquiry: Is pIC50 at least 7? Consider COc1ccc(-c2ncn(C)c2-c2cc(I)c(OC)c(I)c2)cc1F
Reply text: MET

Value source: ChEMBL document CHEMBL1909605
